tested on: transglutaminase; experiment: Measurement of transglutaminase activity in lysate of treated keratinocytes (Transglutaminase Colorimetric Microassay Kit); type: cell-based, human; details: HEKn cells, 3 days; evaluated conc. 1 μM; relative value, control DMSO = 1; n = 3
The entries below come with measured Transglutaminase activity values attached.
Just the number, please.

stdin: Specify reported Transglutaminase activity for the molecule shown: COc1cc2c(OC)c3c(c(-c4ccc5c(c4)OCO5)c2cc1OC)C(=O)OC3 [Exemplified compound (14)]
stdout: 2.19

stdin: Specify reported Transglutaminase activity for the molecule shown: O=C1OCc2cc3ccccc3c(-c3ccccc3)c21 [Exemplified compound (11), 9-phenylnaphtho[2,3-c]furan-1(3H)-one]
stdout: 1.48

stdin: Specify reported Transglutaminase activity for the molecule shown: COc1cc2c(OC)c3c(c(-c4cc5c(cc4O)OCO5)c2cc1OC)C(=O)OC3 [(4), reference compound]
stdout: 0.22

stdin: Specify reported Transglutaminase activity for the molecule shown: COc1cc([C@@H]2c3cc4c(c(OC)c3C[C@H]3COC(=O)[C@@H]32)OCO4)cc(OC)c1OC [(1), reference compound]
stdout: 0.24

====

system: transglutaminase; test: Measurement of transglutaminase activity in lysate of treated keratinocytes (Transglutaminase Colorimetric Microassay Kit); assay type: cell-based, human; conditions: HEKn cells, 3 days; evaluated conc. 1 μM; relative value, control DMSO = 1; n = 3
Label key: yes means Transglutaminase activity under 2; no means Transglutaminase activity of 2 or more.

stdin: Does the reported Transglutaminase activity of COc1cc([C@@H]2c3cc4c(cc3C[C@H]3COC(=O)[C@@H]32)OCO4)cc(OC)c1OC [(2), reference compound] stay below 2?
stdout: yes

stdin: Does the reported Transglutaminase activity of `COc1cc2c(OC(C)=O)c3c(c(-c4ccc5c(c4)OCO5)c2cc1OC)C(=O)OC3` stay below 2?
stdout: no

stdin: Does the reported Transglutaminase activity of COc1c2c(c(-c3ccc4c(c3)OCO4)c3cc4c(cc13)OCO4)C(=O)OC2 [(3), reference compound] stay below 2?
stdout: yes

stdin: Does the reported Transglutaminase activity of `O=C1OCc2cc3ccc4c(c3cc21)OCO4` stay below 2?
stdout: no

stdin: Does the reported Transglutaminase activity of `CCOc1c2c(c(-c3ccc4c(c3)OCO4)c3cc(OC)c(OC)cc13)C(=O)OC2` stay below 2?
stdout: yes
